meta.source: patent US20110065632A1

Target: hsst2 (Homo sapiens, UniProt P30874)
Construct: expressed in transfected cells
Sequence (P30874 whole entry): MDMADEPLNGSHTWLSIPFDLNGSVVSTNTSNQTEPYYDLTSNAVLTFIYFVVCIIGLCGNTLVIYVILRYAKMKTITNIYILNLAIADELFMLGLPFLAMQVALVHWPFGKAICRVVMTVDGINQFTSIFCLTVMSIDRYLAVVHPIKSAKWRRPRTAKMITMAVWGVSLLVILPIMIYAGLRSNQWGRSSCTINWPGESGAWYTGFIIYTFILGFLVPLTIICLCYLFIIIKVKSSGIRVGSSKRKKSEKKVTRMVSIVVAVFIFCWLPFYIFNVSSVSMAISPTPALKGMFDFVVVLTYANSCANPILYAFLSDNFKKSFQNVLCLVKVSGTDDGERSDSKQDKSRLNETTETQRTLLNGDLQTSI
Experiment: Somatostatin receptor radioligand binding assay, hsst2
Conditions: CHO-K1 membranes, [125I]MK-678; read-out: hsst2 Ki
Experimental: Specificity and selectivity of the somatostatin analogues used to synthesize the somatostatin-dopamine chimers were determined by a radioligand binding assay on CHO-K1 cells stably transfected with each of the SSTR subtypes, as follows. Somatostatin analogs are also described in U.S. Patent Application Publication No. 02210006790. […]
pKi: −log10 of the molar value. Numbered stars: 1 amine (or outer) side, 2 acyl side, 3 side chain; on linkers, the order of the positions; unused ones are H or OH. Bridge positions count the residues as written; N and C are the ends. Square brackets hold non-standard residues; d marks the D form. Peptide text beside a SMILES is read from it. * marks the point of attachment. X1 = CCCN1C[C@H](CSCC(=O)*)C[C@@H]2c3cccc4[nH]cc(c34)C[C@H]21; X2 = CN1C[C@H](CSCC(=O)*)C[C@@H]2c3cccc4[nH]cc(c34)C[C@H]21; Pipz(1-CH2CO,4-CH2CH2NH) = O=C(CN1CCN(CCN[*:1])CC1)[*:2]; Abu = CC[C@H](N)C(=O)O; AEEA = NCCOCCOCC(=O)O
Please enter 1.0 where pKi is greater than or equal to 10, and 0.0 where it is lower.

compound	target_under_test	assigned_category
CC[C@@H]1NC(=O)[C@H](CCCCN)NC(=O)[C@@H](Cc2c[nH]c3ccccc23)NC(=O)[C@H](Cc2ccc(O)cc2)NC(=O)[C@@H](NC(=O)[C@@H](Cc2ccc(O)cc2)NC(=O)[C@@H](Cc2ccc(O)cc2)NC(=O)[C@H](CCCCN)NC(=O)COCCOCCNC(=O)CSC[C@@H]2C[C@@H]3c4cccc5[nH]cc(c45)C[C@H]3N(C)C2)CSSC[C@@H](C(=O)N[C@H](C(N)=O)[C@@H](C)O)NC1=O [Example 34] ({X2-AEEA}-K[dY][dY]CY[dW]K[Abu]CT-NH2; disulfide 4-9)	hsst2 (Homo sapiens, UniProt P30874)	0.0
CCCN1C[C@H](CSCC(=O)N[C@H](Cc2ccccc2)C(=O)NCCOCCOCC(=O)N[C@H](Cc2ccccc2)C(=O)N[C@H]2CSSC[C@@H](C(=O)N[C@H](C(N)=O)[C@@H](C)O)NC(=O)[C@H](C(C)C)NC(=O)[C@H](CCCCN)NC(=O)[C@@H](Cc3c[nH]c4ccccc34)NC(=O)[C@H](Cc3ccc(O)c(I)c3)NC2=O)C[C@@H]2c3cccc4[nH]cc(c34)C[C@H]21	hsst2 (Homo sapiens, UniProt P30874)	0.0
CC[C@@H]1NC(=O)[C@H](CCCCN)NC(=O)[C@@H](Cc2c[nH]c3ccccc23)NC(=O)[C@H](Cc2ccc(O)cc2)NC(=O)[C@@H](NC(=O)[C@@H](Cc2ccc(O)cc2)NC(=O)[C@@H](Cc2ccc(O)cc2)NC(=O)[C@H](CCCCN)NC(=O)CN2CCN(CCNC(=O)CSC[C@@H]3C[C@@H]4c5cccc6[nH]cc(c56)C[C@H]4N(C)C3)CC2)CSSC[C@@H](C(=O)N[C@H](C(N)=O)[C@@H](C)O)NC1=O [Example 32] (X2-[Pipz(1-CH2CO,4-CH2CH2NH)]K[dY][dY]CY[dW]K[Abu]CT-NH2; disulfide 5-10)	hsst2 (Homo sapiens, UniProt P30874)	0.0
CCCN1C[C@H](CSCC(=O)NCCCC[C@H](NC(C)=O)C(=O)N[C@H](Cc2ccc(O)cc2)C(=O)N[C@H](Cc2ccc(O)cc2)C(=O)N[C@H]2CSSC[C@@H](C(=O)N[C@H](C(N)=O)[C@@H](C)O)NC(=O)[C@H](CC)NC(=O)[C@H](CCCCN)NC(=O)[C@@H](Cc3c[nH]c4ccccc34)NC(=O)[C@H](Cc3ccc(O)cc3)NC2=O)C[C@@H]2c3cccc4[nH]cc(c34)C[C@H]21 [Example 11] (Ac-K(X1)[dY][dY]CY[dW]K[Abu]CT-NH2; disulfide 4-9)	hsst2 (Homo sapiens, UniProt P30874)	1.0
CC[C@@H]1NC(=O)[C@H](CCCCN)NC(=O)[C@@H](Cc2c[nH]c3ccccc23)NC(=O)[C@H](Cc2ccc(O)cc2)NC(=O)[C@@H](NC(=O)[C@@H](Cc2ccccc2)NC(=O)COCCOCCNC(=O)COCCOCCNC(=O)CSC[C@@H]2C[C@@H]3c4cccc5[nH]cc(c45)C[C@H]3N(C)C2)CSSC[C@@H](C(=O)N[C@H](C(N)=O)[C@@H](C)O)NC1=O	hsst2 (Homo sapiens, UniProt P30874)	0.0
CC[C@@H]1NC(=O)[C@H](CCCCN)NC(=O)[C@@H](Cc2c[nH]c3ccccc23)NC(=O)[C@H](Cc2ccc(O)cc2)NC(=O)[C@@H](NC(=O)[C@@H](Cc2ccccc2)NC(=O)COCCOCCNC(=O)CSC[C@@H]2C[C@@H]3c4cccc5[nH]cc(c45)C[C@H]3N(C)C2)CSSC[C@@H](C(=O)N[C@H](C(N)=O)[C@@H](C)O)NC1=O	hsst2 (Homo sapiens, UniProt P30874)	0.0
